tested on: AKT2 (Homo sapiens)
Construct: expressed in transfected cells; host or cells: HEK293
Sequence (P31751 whole entry): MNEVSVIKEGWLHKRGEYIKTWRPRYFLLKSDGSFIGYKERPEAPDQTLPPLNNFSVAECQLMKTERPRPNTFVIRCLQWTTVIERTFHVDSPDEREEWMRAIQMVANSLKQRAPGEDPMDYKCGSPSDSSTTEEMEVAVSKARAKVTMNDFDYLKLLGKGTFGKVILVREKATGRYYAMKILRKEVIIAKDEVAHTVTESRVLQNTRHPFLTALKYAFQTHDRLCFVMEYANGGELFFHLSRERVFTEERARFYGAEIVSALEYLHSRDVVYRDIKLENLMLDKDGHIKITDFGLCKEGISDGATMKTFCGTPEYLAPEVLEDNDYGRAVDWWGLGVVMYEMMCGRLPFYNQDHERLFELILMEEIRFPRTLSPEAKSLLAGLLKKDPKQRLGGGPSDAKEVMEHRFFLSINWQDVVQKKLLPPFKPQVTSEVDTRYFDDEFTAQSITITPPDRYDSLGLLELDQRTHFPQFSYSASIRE
method description: Live cell AKT2 target engagement by NanoBRET competitive probe displacement in HEK293 cells
Format: binding
run conditions: NanoBRET live cell target engagement, HEK293 cells, 2 h at 37° C.; read-out: AKT2 IC50
Attribute: IC50

Form field IC50, entry Cc1ccc(CN(C)[C@H]2CCc3cc(-n4c(-c5cccnc5N)nc5ccc(-n6cccn6)nc54)ccc32)cn1 [Compound 168] : 1010 nM

Form field IC50, entry Nc1ncccc1-c1nc2ccc(-n3cccn3)nc2n1-c1ccc2c(c1)CC[C@@H]2NC(=O)[C@H]1CCO1 [Compound 372] : > 10000 nM

Form field IC50, entry Nc1ncccc1-c1nc2ccc(-n3cccn3)nc2n1-c1ccc2c(c1)CC[C@@H]2NC(=O)c1cccn2ccnc12 [Compound 161] : 1910 nM

Form field IC50, entry Cc1nncn1[C@H]1CCc2cc(-n3c(-c4cccnc4N)nc4ccc(-n5cccn5)nc43)ccc21 [Compound 217] : 328 nM

Form field IC50, entry Nc1ncccc1-c1nc2ccc(C3CC3)nc2n1-c1ccc2c(c1)CC[C@@H]2NC(=O)c1ccc(C(F)F)nc1 [Compound 130] : 2290 nM

Form field IC50, entry Nc1ncccc1-c1nc2ccc(-n3cccn3)nc2n1-c1ccc2c(c1)CC[C@@H]2NC(=O)c1ccc2oncc2c1 [Compound 20] : 713 nM

Form field IC50, entry Nc1ncccc1-c1nc2ccc(-n3cccn3)nc2n1-c1ccc2c(c1)CC[C@@H]2NC1CCN(C(=O)c2ccncc2)CC1 [Compound 360] : 8140 nM
